# Target system: Proto-oncogene tyrosine-protein kinase Src (Homo sapiens, UniProt P12931)
# Sequence (P12931 2-536 limits assumed): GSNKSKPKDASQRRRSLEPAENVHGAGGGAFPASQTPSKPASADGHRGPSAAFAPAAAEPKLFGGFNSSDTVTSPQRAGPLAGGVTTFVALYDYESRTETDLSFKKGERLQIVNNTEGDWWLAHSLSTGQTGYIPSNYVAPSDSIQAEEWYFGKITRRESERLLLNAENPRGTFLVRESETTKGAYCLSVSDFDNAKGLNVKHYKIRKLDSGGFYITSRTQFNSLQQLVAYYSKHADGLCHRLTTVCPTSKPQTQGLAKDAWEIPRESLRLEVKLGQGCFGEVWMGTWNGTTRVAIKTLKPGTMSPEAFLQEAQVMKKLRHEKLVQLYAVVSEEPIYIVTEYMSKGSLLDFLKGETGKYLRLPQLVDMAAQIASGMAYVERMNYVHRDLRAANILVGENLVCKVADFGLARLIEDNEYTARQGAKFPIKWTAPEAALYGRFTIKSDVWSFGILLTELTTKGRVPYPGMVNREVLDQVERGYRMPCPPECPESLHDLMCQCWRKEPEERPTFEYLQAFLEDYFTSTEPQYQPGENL
Quantity measured: Ki (µM)

> print(dat)
                                   compound                             target.system  quantity.measured  result.units  observed.value
1  Oc1ccc(F)c(Nc2nc(SCCN3CCOCC3)nc3c2cnn3CC(Cl)c2ccccc2)c1 (stereo unspecified)  Proto-oncogene tyrosine-protein kinase Src (Homo sapiens, UniProt P12931)                 Ki            µM            0.17
